# System: T47D
# TEST NAME: NCI tumour cell line growth inhibition, 48 h
Active and inactive are the calls of the source. Rule as the data show it: active = GI50 up to about 1.1 µM and inactive = higher.
Reply using exactly one outcome from TRUE (active), FALSE (inactive)

COMPOUND	LABEL
S=C1Nc2ccccc2SC1c1ccccc1 (stereo unspecified)	FALSE

Req: Write down the call the test reported for this compound. Item: CCOC(=O)C(=CNc1ccc(N(C2=NCC(C)S2)c2ccc(F)c(Cl)c2)cc1)C(=O)OCC (stereo unspecified)
Resp: FALSE

Req: I'd appreciate the recorded outcome for "COc1ccc(C)cc1Nc1nnc(-c2ccccc2N)s1" from this test.
Resp: FALSE

Req: Record lookup: outcome of this test for "CCOC(=O)c1sc2[n+](c1C)C(=O)/C(=C/c1ccc([N+](=O)[O-])cc1)S2" ?
Resp: FALSE

Req: What outcome does the record of this test show for "C[n+]1c(-c2ccc(/C=N/NC(=S)N/N=C/c3ccc(-c4cn5ccsc5[n+]4C)cc3)cc2)cn2ccsc21" ?
Resp: FALSE

Req: # outcome recorded in this test, key = "Clc1ncnc(Cl)c1Cl"
Resp: FALSE

* * *

Can you tell me GI50 for the items I'm about to list?
# System: MDA-N
# TEST NAME: NCI tumour cell line growth inhibition, 48 h
Calls of active or inactive are those of the source. Rule as the data show it: active = GI50 up to about 1.1 µM and inactive = higher.

Here are 5 compounds together with their reported answers.
COMPOUND	RESULT
O=C1c2ccccc2CC12CCC1(CC2)OCCO1	> 100 µM (inactive)
COc1ccc(C)cc1Nc1nnc(-c2ccccc2N)s1	28.9 µM (inactive)
CN(CC#N)C(=O)Cc1ccc([N+](=O)[O-])cc1	> 10 µM (inactive)
CC(Nc1ncc2c(n1)-c1ccccc1OC2)C(=O)O (stereo unspecified)	> 100 µM (inactive)
COC(=O)n1c(=O)n(-c2ccccc2)c(=O)n1C(=O)OC	> 100 µM (inactive)

Each of the following entries comes with a recorded value; kindly state GI50 for each.
1. Cc1nn2c(=O)c([N+](=O)[O-])c(/C=C/c3ccc(F)cc3)nc2s1
2. COC(=O)/C=C\C(C#N)(C#N)/N=C/c1ccsc1
3. C[C@H]1ON2CCC[C@@H]2[C@@H]1C(=O)N1C2CC3CCC2(CS1(=O)=O)C3(C)C (stereo partly specified)
4. O=C(O)c1cc(Cl)cc(Cc2cc(Cl)cc(C(=O)O)c2O)c1O

Resp:
5.96 µM (inactive)
3.83 µM (inactive)
> 100 µM (inactive)
> 100 µM (inactive)

Dear colleague, could you please provide GI50 for the compounds listed below?
1. NC(=O)CC(Nc1ncc2c(n1)-c1ccccc1OC2)C(=O)O (stereo unspecified)
2. NC(Cc1ccccc1)C(=O)NC(Cc1ccccc1)NC(=O)C(Cc1c[nH]c2ccccc12)C(=O)O (stereo unspecified)

Resp:
1: > 100 µM (inactive); 2: > 100 µM (inactive)

* * *

# Test system: UACC-62
# TEST NAME: NCI tumour cell line growth inhibition, 48 h
Active and inactive are the calls of the source. No stated cut-off is given here; in the data, active = GI50 up to about 1.1 µM and inactive = higher.
MEASUREMENT TYPE: GI50

COMPOUND	GI50
COc1ccc(C(=O)C/C(=N/NC(N)=S)C(=O)Nc2ccccc2)cc1	> 100 µM (inactive)

Below are 4 compounds. Give each one its GI50.
1. Cc1cc2c(cc1C)NC(=O)C(NC(=O)/C=C/c1ccccc1)C=N2 (stereo unspecified)
2. COc1ccc(C(O)CNC(=O)c2ccccc2)cc1 (stereo unspecified)
3. CN(C)c1ncc(-c2c[nH]c3ccccc23)nc1-c1c[nH]c2ccccc12
4. CN(C)C(=O)Oc1ccc[n+](C)c1 [PYRIDOSTIGMINE BROMIDE]

Resp:
1: 34.8 µM (inactive); 2: > 100 µM (inactive); 3: 1.99 µM (inactive); 4: > 100 µM (inactive)

Req: Assign GI50 to the following record: FC1C2=C(SC1(F)F)C1CCC2C1 (stereo unspecified)
Resp: > 100 µM (inactive)

* * *

Please provide measured GI50 for the entries that follow.
# Tested on: DU-145
# TEST NAME: NCI tumour cell line growth inhibition, 48 h
Active and inactive are the calls of the source. No stated cut-off is given here; in the data, active = GI50 up to about 1.1 µM and inactive = higher.

Worked cases, answers included:
COMPOUND	RESULT
COC(=O)/C(C#N)=C(/NCCN)Nc1ccccc1	> 100 µM (inactive)
NC(Cc1ccccc1)C(=O)NC(Cc1ccccc1)NC(=O)C(Cc1c[nH]c2ccccc12)C(=O)O (stereo not given)	> 100 µM (inactive)
O=C1CN(c2ccccc2)C(=O)CN1NCNN1CC(=O)N(c2ccccc2)CC1=O	> 100 µM (inactive)
CCC(C)N1CN(c2ccccc2)C2(CCN(CC3COc4ccccc4O3)CC2)C1=O (stereo not given)	21.6 µM (inactive)
CN(C)c1ncc(-c2c[nH]c3ccccc23)nc1-c1c[nH]c2ccccc12	7.28 µM (inactive)
C=C1C(=O)OC2C1C(=O)C/C(C)=C/CCC1(C)OC21 (stereo not given)	17.4 µM (inactive)

For the 2 compounds below, give their GI50 values.
1. COC(=O)n1c(=O)n(-c2ccccc2)c(=O)n1C(=O)OC
2. O=C1c2ccccc2CC12CCC1(CC2)OCCO1

Resp:
1: > 100 µM (inactive); 2: > 100 µM (inactive)

Required: GI50, one value per compound below.
1. O=C(O)[C@@H]1CCC(=O)N1C(c1ccc2c(c1)OCO2)c1ccc2c(c1)OCO2
2. NC(=O)C(=O)n1ncc(Cl)c(Cl)c1=O
3. O=C1CC(c2ccccc2)NCCCCN2CC(CN1)C(C(O)c1ccccc1)C2=O (stereo not given)
4. C=CCN(c1cc(OC)c(NC(C)=O)cc1[N+](=O)[O-])S(C)(=O)=O
5. CCCc1cn2c(/C=N/N=C(N)N)c(-c3c(OC)ccc(OC)c3[N+](=O)[O-])nc2s1
6. CC1=CC[C@@]2(CO)[C@@H]([C@@H]1C)[C@H]1CC[C@@H]3[C@@]4(C)CC[C@H](O)C(C)(C)[C@@H]4CC[C@@]3(C)[C@]1(C)C[C@@H]2O
7. O=C1OC(c2ccc(O)c(Cl)c2)(c2ccc(O)c(Cl)c2)c2ccc(Br)c3cccc1c23.O=C1OC(c2ccc(O)c(Cl)c2)(c2ccc(O)c(Cl)c2)c2cccc3c(Br)ccc1c23
8. COc1cc(C2S/C(=C/c3ccccc3)C(=O)N2c2cccc(Cl)c2)cc(OC)c1OC (stereo not given)

Resp:
["> 100 µM (inactive)", "> 100 µM (inactive)", "> 100 µM (inactive)", "> 100 µM (inactive)", "16 µM (inactive)", "23 µM (inactive)", "23.7 µM (inactive)", "23.1 µM (inactive)"]

Hey, quick one: what's GI50 for each of these?
1. COc1ccccc1/C=C1\S/C(=N/Nc2nc(C)c(C(C)=O)s2)NC1=O
2. COC(=O)/C=C\C(C#N)(C#N)/N=C/c1ccsc1
3. O=C(O)c1cc(Cl)cc(Cc2cc(Cl)cc(C(=O)O)c2O)c1O
4. Cn1cc(C=C(C#N)C#N)c(=O)n(C)c1=O

Resp:
["69.7 µM (inactive)", "8.05 µM (inactive)", "> 100 µM (inactive)", "> 100 µM (inactive)"]

* * *

# Tested on: A549
# TEST NAME: NCI tumour cell line growth inhibition, 48 h
Active and inactive are the calls of the source. Cut-off read from the data, not from the text of the source: active = GI50 up to about 1.1 µM and inactive = higher.
A correct response names exactly one class from 1.0 for active, 0.0 for inactive

Req: Dear all, I need the recorded test outcome for "c1ccc2c(NCCCCCCCCNc3cccc4ccccc34)cccc2c1" , thank you.
Resp: 0.0

Req: Could you please tell me the result logged for CN(C(=O)C12C3C4C5C3C1(C(=O)O)C5C42)C(C)(C)C (stereo unspecified) in this assay?
Resp: 0.0

Req: # lookup: test call for Clc1ccc(C2ON=C(c3ccccc3)N2C23CC4CC(CC(C4)C2)C3)c(Cl)c1 (stereo unspecified)
Resp: 0.0

Req: Check the results log: what was the call for "CCCCCCCCCCCCCCCCCCNC(=S)NC=C1C(=O)c2ccccc2C1=O" ?
Resp: 0.0

Req: Just curious, what result did "O=C1C=CC(=O)c2cc(Sc3ccccc3)c(=O)c(Sc3ccccc3)cc21" get here?
Resp: 0.0

* * *

# Test system: MCF7
# TEST NAME: NCI tumour cell line growth inhibition, 48 h
The source made the active and inactive calls. Rule as the data show it: active = GI50 up to about 1.1 µM and inactive = higher.
Hi there, I'd appreciate the recorded GI50 for every entry that follows.

Past entries and their recorded results:
MOLECULE	RESULT
Nc1ncnc2c1ncn2C1OC(COP(=O)(O)CP(=O)(O)O)C(O)C1O (stereo unspecified)	> 100 µM (inactive)
COC(=O)C(=O)C(C(=O)C(=O)Nc1ccccc1C(C)=O)c1nc2ccc(C(=O)c3ccccc3)cc2nc1O (stereo unspecified)	19.4 µM (inactive)
ClCCc1ccccc1CC1=NCCc2ccccc21	27.7 µM (inactive)
COC(=O)N1CC2(CO)C3CC=C(C(=O)Nc4ccccc4Br)C2C1C3Br (stereo unspecified)	> 50 µM (inactive)
COP(=O)(OC)C(O)CC(C)C (stereo unspecified)	> 100 µM (inactive)

Hi, could you look up GI50 for each item in my list?
1. C=C1C(=O)OC2C1C(=O)C/C(C)=C/CCC1(C)OC21 (stereo unspecified)
2. N#CCC1(c2ccc(Cl)cc2)NC(=O)c2ccccc21 (stereo unspecified)
3. C#CC1(O)CCC2[C@@H]3CCc4cc(Oc5nc(F)nc(-c6c(C)c(C(=O)OCC)n7ccccc67)n5)ccc4C3CC[C@@]21C (stereo partly specified)
4. CC(C)(C)OC(=O)NCCCCC(N)C(N)=O (stereo unspecified)
5. O=S(=O)(c1ccc(I)cc1)N(c1ccccc1)S(=O)(=O)C(F)(F)C(F)(F)C(F)(F)C(F)(F)F
6. COC(=O)/C(C#N)=C(/NCCN)Nc1ccccc1

Resp:
["8.63 µM (inactive)", "> 100 µM (inactive)", "> 100 µM (inactive)", "> 100 µM (inactive)", "26.9 µM (inactive)", "> 100 µM (inactive)"]
